experimentalSystem: UniProt P49841
assayExplanation: GSK3beta assay (SPA, biotinylated phosphorylated CREB peptide, ATP-P33)
Format: biochemical
runConditions: −log IC50 (M); reported as ranges; 5.7 ng/μl GSK3β, 1 μM ATP, room temperature, one hour; read-out: pIC50 (GSK3beta) (converted)
measurementKind: IC50

{"compound": "O=C(O)Cc1cccc(-n2nnc3cnc(Nc4ccccc4)nc32)c1 [Co. No. 8]", "experimentalSystem": "UniProt P49841", "measurementKind": "IC50", "result": "> 1e-07 M"}
{"compound": "OCCc1ccc(-n2nnc3cnc(Nc4ccccc4)nc32)cc1 [Co. No. 16]", "experimentalSystem": "UniProt P49841", "measurementKind": "IC50", "result": "1e-08 to 1e-07 M"}
{"compound": "CCOC(=O)NCc1cccc(-n2nnc3cnc(Nc4ccccc4)nc32)c1 [Co. No. 15]", "experimentalSystem": "UniProt P49841", "measurementKind": "IC50", "result": "< 1e-08 M"}

Exercise: Need IC50, item NCc1cccc(-n2nnc3cnc(Nc4ccccc4)nc32)c1 [Co. No. 9]
Key: 1e-08 to 1e-07 M

Exercise: Fill in the blank: the reported IC50 of CC(C)CC(=O)NCc1cccc(-n2nnc3cnc(Nc4ccccc4)nc32)c1 [Co. No. 7] is ____.
Key: < 1e-08 M

Exercise: Could you share which IC50 value was measured for COCCOc1cccc(-n2nnc3cnc(Nc4ccccc4)nc32)c1 [Co. No. 3] ?
Key: 1e-08 to 1e-07 M

Exercise: State the recorded IC50 for this entry: COCCOCc1cccc(-n2nnc3cnc(Nc4ccccc4)nc32)c1 [Co. No. 2]
Key: < 1e-08 M

Exercise: # query: IC50 of entry COCc1cccc(-n2nnc3cnc(Nc4ccccc4)nc32)c1 [Co. No. 11]
Key: < 1e-08 M

Exercise: What value of IC50 has been reported for the following compound? O=C(NCc1cccc(-n2nnc3cnc(Nc4ccccc4)nc32)c1)C12CC3CC(CC(C3)C1)C2 [Co. No. 6]
Key: > 1e-07 M

Exercise: Quick one: IC50 of NC(=O)Cc1cccc(-n2nnc3cnc(Nc4ccccc4)nc32)c1 [Co. No. 17] ?
Key: < 1e-08 M

====

measurementKind: melting point (°C)
Report the value in °C with no unit label.

The cases that follow already have their melting point on record.
{"structureSmilesString": "COCCOc1cccc(-n2nnc3cnc(Nc4ccccc4)nc32)c1", "endpointUnit": "°C", "melting point": 164}
{"structureSmilesString": "O=C(O)Cc1cccc(-n2nnc3cnc(Nc4ccccc4)nc32)c1", "endpointUnit": "°C", "melting point": 241}

Moving on to another compound below.
Exercise: Sample COCCOCc1cccc(-n2nnc3cnc(Nc4ccccc4)nc32)c1 — what was its melting point?
Key: 143

====

experimentalSystem: GSK3β (Homo sapiens, UniProt P49841)
Sequence (P49841 whole entry, species assumed): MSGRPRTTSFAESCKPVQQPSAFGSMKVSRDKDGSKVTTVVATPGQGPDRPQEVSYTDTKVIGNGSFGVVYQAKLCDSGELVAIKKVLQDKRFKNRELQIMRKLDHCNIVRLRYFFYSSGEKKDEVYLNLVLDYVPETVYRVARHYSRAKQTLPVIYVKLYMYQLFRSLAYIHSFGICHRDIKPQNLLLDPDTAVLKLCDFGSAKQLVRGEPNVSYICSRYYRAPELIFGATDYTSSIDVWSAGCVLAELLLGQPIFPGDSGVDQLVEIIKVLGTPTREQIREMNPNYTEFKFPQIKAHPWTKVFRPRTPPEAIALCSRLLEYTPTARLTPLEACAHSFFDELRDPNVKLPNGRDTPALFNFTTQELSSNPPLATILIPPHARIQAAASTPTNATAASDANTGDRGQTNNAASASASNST
assayExplanation: GSK3beta assay (SPA, biotinylated phosphorylated CREB peptide, ATP-P33)
Type: biochemical
runConditions: −log IC50 (M); reported as ranges; 5.7 ng/μl GSK3β, 1 μM ATP, room temperature, one hour; read-out: pIC50 (GSK3beta) (converted)
measurementKind: IC50

{"compound": "CC(=O)NCc1cccc(-n2nnc3cnc(Nc4ccccc4)nc32)c1 [Co. No. 12]", "result": "≤ 1e-08 M"}
{"compound": "N#CCc1cccc(-n2nnc3cnc(Nc4ccccc4)nc32)c1 [Co. No. 1]", "result": "< 1e-08 M"}
{"compound": "c1ccc(Nc2ncc3nnn(-c4ccccc4)c3n2)cc1 [Co. No. 4]", "result": "1e-08 to 1e-07 M"}
{"compound": "OCCc1cccc(-n2nnc3cnc(Nc4ccccc4)nc32)c1 [Co. No. 10]", "result": "< 1e-08 M"}

Proceeding to the next compound to report its IC50.
Exercise: Dear colleague, I am looking for the recorded IC50 of the following compound: CC(C)(C)OC(=O)NCc1cccc(-n2nnc3cnc(Nc4ccccc4)nc32)c1 [Co. No. 5]
Key: < 1e-08 M

====

experimentalSystem: GSK3alpha (Homo sapiens)
Sequence (P49840 whole entry, species assumed): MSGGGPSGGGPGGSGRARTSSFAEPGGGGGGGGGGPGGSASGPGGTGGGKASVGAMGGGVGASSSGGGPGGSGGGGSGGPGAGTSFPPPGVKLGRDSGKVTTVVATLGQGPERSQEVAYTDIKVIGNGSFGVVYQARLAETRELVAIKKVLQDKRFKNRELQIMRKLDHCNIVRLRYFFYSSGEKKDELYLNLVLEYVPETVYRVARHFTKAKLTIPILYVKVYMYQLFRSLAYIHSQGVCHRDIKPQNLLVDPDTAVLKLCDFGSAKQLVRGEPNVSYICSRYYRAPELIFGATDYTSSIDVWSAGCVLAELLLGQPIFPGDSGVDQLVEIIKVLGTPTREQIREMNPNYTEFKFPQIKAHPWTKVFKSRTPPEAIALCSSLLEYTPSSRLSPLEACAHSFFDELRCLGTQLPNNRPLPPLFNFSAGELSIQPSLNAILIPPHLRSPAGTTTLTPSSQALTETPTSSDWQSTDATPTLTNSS
assayExplanation: GSK3alpha assay (same way as the GSK3beta assay)
Type: biochemical
runConditions: −log IC50 (M); reported as ranges; 0.25 ng/μl GSK3alpha, 1 μM ATP, room temperature, one hour; read-out: pIC50 (GSK3alpha) (converted)
measurementKind: IC50

Some molecules with recorded IC50:
{"molecule": "Fc1cccc(-n2nnc3cnc(Nc4ccccc4)nc32)c1 [Co. No. 13]", "measurementKind": "IC50", "result": "1e-08 to 1e-07 M"}
{"molecule": "c1ccc(Nc2ncc3nnn(-c4ccccc4)c3n2)cc1 [Co. No. 4]", "measurementKind": "IC50", "result": "1e-08 to 1e-07 M"}
{"molecule": "CC(C)(C)OC(=O)NCc1cccc(-n2nnc3cnc(Nc4ccccc4)nc32)c1 [Co. No. 5]", "measurementKind": "IC50", "result": "< 1e-08 M"}
{"molecule": "CC(=O)NCc1cccc(-n2nnc3cnc(Nc4ccccc4)nc32)c1 [Co. No. 12]", "measurementKind": "IC50", "result": "< 1e-08 M"}
{"molecule": "CCOC(=O)NCc1cccc(-n2nnc3cnc(Nc4ccccc4)nc32)c1 [Co. No. 15]", "measurementKind": "IC50", "result": "< 1e-08 M"}
{"molecule": "CC(C)CC(=O)NCc1cccc(-n2nnc3cnc(Nc4ccccc4)nc32)c1 [Co. No. 7]", "measurementKind": "IC50", "result": "< 1e-08 M"}
{"molecule": "COCCOCc1cccc(-n2nnc3cnc(Nc4ccccc4)nc32)c1 [Co. No. 2]", "measurementKind": "IC50", "result": "< 1e-08 M"}
{"molecule": "N#CCc1cccc(-n2nnc3cnc(Nc4ccccc4)nc32)c1 [Co. No. 1]", "measurementKind": "IC50", "result": "< 1e-08 M"}
{"molecule": "O=C(NCc1cccc(-n2nnc3cnc(Nc4ccccc4)nc32)c1)C12CC3CC(CC(C3)C1)C2 [Co. No. 6]", "measurementKind": "IC50", "result": "> 1e-07 M"}
{"molecule": "NC(=O)Cc1cccc(-n2nnc3cnc(Nc4ccccc4)nc32)c1 [Co. No. 17]", "measurementKind": "IC50", "result": "< 1e-08 M"}

Exercise: Form field: reported IC50 of O=C(O)Cc1cccc(-n2nnc3cnc(Nc4ccccc4)nc32)c1 [Co. No. 8]
Key: 1e-08 to 1e-07 M

Exercise: Record request: IC50 value, item OCCc1ccc(-n2nnc3cnc(Nc4ccccc4)nc32)cc1 [Co. No. 16]
Key: 1e-08 to 1e-07 M

====

experimentalSystem: GSK3alpha (Homo sapiens)
assayExplanation: GSK3alpha assay (same way as the GSK3beta assay)
Assay type: biochemical
runConditions: −log IC50 (M); reported as ranges; 0.25 ng/μl GSK3alpha, 1 μM ATP, room temperature, one hour; read-out: pIC50 (GSK3alpha) (converted)
measurementKind: IC50

{"molecule": "OCCc1cccc(-n2nnc3cnc(Nc4ccccc4)nc32)c1 [Co. No. 10]", "IC50": "< 1e-08 M"}
{"molecule": "O=C(NCc1cccc(-n2nnc3cnc(Nc4ccccc4)nc32)c1)C1CC1 [Co. No. 14]", "IC50": "> 1e-06 M"}
{"molecule": "COCc1cccc(-n2nnc3cnc(Nc4ccccc4)nc32)c1 [Co. No. 11]", "IC50": "< 1e-08 M"}
{"molecule": "COCCOc1cccc(-n2nnc3cnc(Nc4ccccc4)nc32)c1 [Co. No. 3]", "IC50": "< 1e-08 M"}

Now for the molecule whose IC50 we want.
Exercise: Suppose we examine the molecule NCc1cccc(-n2nnc3cnc(Nc4ccccc4)nc32)c1 [Co. No. 9] ; what IC50 value has been reported?
Key: < 1e-08 M

====

Where a name gives a salt, the structure may show the parent alone.
measurementKind: melting point

Some molecules with known melting point results, for comparison:
{"molecule": "NCc1cccc(-n2nnc3cnc(Nc4ccccc4)nc32)c1 (as salt: HCl)", "melting point": "> 260 °C"}
{"molecule": "c1ccc(Nc2ncc3nnn(-c4ccccc4)c3n2)cc1", "melting point": "194 to 198 °C"}
{"molecule": "N#CCc1cccc(-n2nnc3cnc(Nc4ccccc4)nc32)c1", "melting point": "218 to 222 °C"}

Exercise: Requested read-out: melting point. Entry: CC(C)(C)OC(=O)NCc1cccc(-n2nnc3cnc(Nc4ccccc4)nc32)c1
Key: 196 to 198 °C
